- Tested on: 855422-203-R-J1-PDC complex spheroids, viability
- assay.info: Anticancer human tumor 855422-203-R-J1-PDC patient-derived bladder carcinoma cell line growth inhibition [CLK]
- test.settings: second compound 0.316 µM; first compound 3.16 µM; hits give low values
Listed compounds paired with reported viability, T/C
Value expressed in %; do not type the unit.

Example compounds with recorded viability, T/C:
O=c1[nH]cc(F)c(=O)[nH]1 + CNC(=O)c1ccc(Nc2nc(OC3CCCC3)c3c(-c4ccc5nc(C)oc5c4)c[nH]c3n2)c(OC)c1 ... 19.7
O=C(c1cc(Cc2n[nH]c(=O)c3ccccc23)ccc1F)N1CCN(C(=O)C2CC2)CC1 + CN1CCN(c2cc(C(=O)Nc3cc4cc(-c5cnn(C)c5)ccc4cn3)ccn2)CC1 ... 9.53

Problem: Return viability, T/C for the following compound: CC1(C)CCC(CN2CCN(c3ccc(C(=O)NS(=O)(=O)c4ccc(NCC5CCOCC5)c([N+](=O)[O-])c4)c(Oc4cnc5[nH]ccc5c4)c3)CC2)=C(c2ccc(Cl)cc2)C1 + CNC(=O)c1ccc(Nc2nc(OC3CCCC3)c3c(-c4ccc5nc(C)oc5c4)c[nH]c3n2)c(OC)c1
Result: 20.5

Problem: Return viability, T/C for the following compound: C=CC(=O)N1CCN(c2nc(=O)n(-c3c(C)ccnc3C(C)C)c3nc(-c4c(O)cccc4F)c(F)cc23)C(C)C1 (stereo unspecified) + CN1CCN(c2cc(C(=O)Nc3cc4cc(-c5cnn(C)c5)ccc4cn3)ccn2)CC1
Result: 17.6

Problem: Return viability, T/C for the following compound: CC(Nc1ccc2c(c1)OCCn1cc(N3C(=O)OCC3C(F)F)nc1-2)C(N)=O (stereo unspecified) + CN1CCN(c2cc(C(=O)Nc3cc4cc(-c5cnn(C)c5)ccc4cn3)ccn2)CC1
Result: 2.03

Problem: Return viability, T/C for the following compound: CC(Nc1ccc2c(c1)OCCn1cc(N3C(=O)OCC3C(F)F)nc1-2)C(N)=O (stereo unspecified) + CNC(=O)c1ccc(Nc2nc(OC3CCCC3)c3c(-c4ccc5nc(C)oc5c4)c[nH]c3n2)c(OC)c1
Result: 9.9

Problem: Return viability, T/C for the following compound: Nc1ccn(C2OC(CO)C(O)C2(F)F)c(=O)n1 (stereo unspecified) + CNC(=O)c1ccc(Nc2nc(OC3CCCC3)c3c(-c4ccc5nc(C)oc5c4)c[nH]c3n2)c(OC)c1
Result: 5.76

###

- System: 855422-203-R-J1-PDC complex spheroids, viability
- assay.info: Anticancer human tumor 855422-203-R-J1-PDC cell line growth inhibition [CLK]; active = viability on the fitted dose curve at most 10% of control; inactive = the rest;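 also: spheroids exposed to drugs for seven days before readout; 100% = DMSO vehicle control wells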
- test.settings: second compound 0.1 µM; first compound 10 µM
The reply should be one of these categories: active, inactive

CC1(C)CCC(CN2CCN(c3ccc(C(=O)NS(=O)(=O)c4ccc(NCC5CCOCC5)c([N+](=O)[O-])c4)c(Oc4cnc5[nH]ccc5c4)c3)CC2)=C(c2ccc(Cl)cc2)C1 + CNC(=O)c1ccc(Nc2nc(OC3CCCC3)c3c(-c4ccc5nc(C)oc5c4)c[nH]c3n2)c(OC)c1 ... active
C=CC(=O)N1CCN(c2nc(=O)n(-c3c(C)ccnc3C(C)C)c3nc(-c4c(O)cccc4F)c(F)cc23)C(C)C1 (stereo not drawn) + CNC(=O)c1ccc(Nc2nc(OC3CCCC3)c3c(-c4ccc5nc(C)oc5c4)c[nH]c3n2)c(OC)c1 ... inactive

Next up:
Problem: How was COc1ccc([C@@H](O)c2cc(-c3ncnc4cc(N5CCOCC5)ccc34)c(F)cc2Cl)nn1 + CN1CCN(c2cc(C(=O)Nc3cc4cc(-c5cnn(C)c5)ccc4cn3)ccn2)CC1 classified in this test?
Result: inactive
